Test system: SK-OV-3
Test: NCI tumour cell line growth inhibition, 48 h
Calls of active or inactive are those of the source. No stated cut-off is given here; in the data, active = GI50 up to about 1.1 µM and inactive = higher.
Reported GI50 values for a set of molecules
readout kind: GI50

[[record]]
molecule = "COCO[C@@H]1C[C@H]2C(=O)N(COC)c3ccccc3C(=O)N2C1"
study_system = "SK-OV-3"
result = "> 100 µM (inactive)"

[[record]]
molecule = "N=C(N)N/N=C/c1c(-c2cc([N+](=O)[O-])c(Cl)cc2Cl)nc2sccn12"
study_system = "SK-OV-3"
result = "1.83 µM (inactive)"

[[record]]
molecule = "COc1ccc(C(=O)C(c2ccc(OC)cc2)C2(O)C(=O)Nc3c(C)cc(Cl)cc32)cc1 (stereo not drawn)"
study_system = "SK-OV-3"
result = "> 100 µM (inactive)"

[[record]]
molecule = "Cn1c(=O)c2c(nc(N3CCOCC3)n2CCCNCC(O)c2ccc(O)c(O)c2)n(C)c1=O (stereo not drawn)"
study_system = "SK-OV-3"
result = "> 100 µM (inactive)"

[[record]]
molecule = "Cc1nnc2sc(-c3ccc([N+](=O)[O-])o3)nn12"
study_system = "SK-OV-3"
result = "18.7 µM (inactive)"

[[record]]
molecule = "N#CCCN(CCC#N)c1ccc(C(/N=N/c2ccccc2)=N\\c2ccccc2)cc1"
study_system = "SK-OV-3"
result = "> 100 µM (inactive)"

[[record]]
molecule = "C=CCc1cccc2cc(C(=O)Nc3ccccc3)c(=N)oc12"
study_system = "SK-OV-3"
result = "61.7 µM (inactive)"

[[record]]
molecule = "COc1cc2c(cc1OC)C1CCc3ccccc3CN1CC2 (stereo not drawn)"
study_system = "SK-OV-3"
result = "> 100 µM (inactive)"

